tested on: ACHN renal; assay: NCI-60 one-dose screen, 48 h; settings: 10 µM unless noted
This is part of a sample that, as a whole, favours compounds with a hit. Of some 83,000 tested, about 20% had one in any assay. Activity calls are given as the source filed them. Rule for the calls: active = growth percent below 10; inactive = the rest.
Outcome codes: Y = active, N = inactive

INSERT INTO measurements (compound, label) VALUES
  ('COc1cccc(-c2cc(-c3cc4ccccc4oc3=O)nc(N)n2)c1', 'N'),
  ('CCCC(C)c1cc(Cc2cc(Cl)cc(Cl)c2O)c(O)c(Cc2cc(Cl)cc(Cl)c2O)c1 (stereo unspecified)', 'Y'),
  ('C/C(=N\Nc1ccc(Cl)cn1)c1ccccn1', 'Y'),
  ('CC(=O)Nc1ccc(S(=O)(=O)Cl)cc1', 'N'),
  ('COC(=O)[C@H](Cc1cn(C)cn1)NC(=O)[C@@H](NC(=O)Nc1cc(C(F)(F)F)cc(C(F)(F)F)c1)C(C)(C)C', 'Y'),
  ('COC1NC(Cl)=C(C#N)C(C#N)(C#N)C1(C)C (stereo unspecified)', 'N'),
  ('Cc1nn(-c2ccccc2)c(N)c1N=C1NC(=O)/C(=C/c2ccc(Cl)cc2)S1', 'N'),
  ('COc1ccc2c(c1)cn1c3ccc(O)cc3[nH]c(=O)c21', 'N'),
  ('Brc1c(-c2ccncc2)nc2n1CCS2', 'N'),
  ('CCOC(=O)c1c2c(cn1Cc1ccccc1)-c1oncc1CC2', 'N'),
  ('C=C(C)C(C(=O)OCC)(C(=O)OCC)C(C)C', 'N');
